System: Skeletal actin, unmodified (0% ADPR-actin control) ( (purified from rabbit or …, UniProt P68135 1-377))
Measurement description: FP
Assay readout: Kd (nM)
Please state the figure in nM; there is no need to write the unit.

Need Kd, item SDKPDMAEIEKFDKSKLKKTETQEKNPLPSKETIEQEKQAGES (not fully specified) [Thymosin-β4]
380

Each recorded value in this set is attributed to paper PMC9266650.
